experiment: Human liver microsomal incubations; format: in vitro ADME; details: human, liver microsomes
Reported Property: CLint scaled at 1 µM (mL/min/kg)
Kindly provide the numeric value in mL/min/kg only, without the unit symbol.

Per the record, Cc1c(-c2ccc(-c3ccc(OC(F)(F)F)cc3)nc2)[nH]c2ccccc2c1=O has CLint scaled at 1 µM of 1.78
